# PROTOCOL: protein stability index of a GFP-peptide fusion (GPS, HEK-293T) (PSI 1-6); higher = more stable;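 also: 24-mer peptide tiles fused after GFP, lentivirally expressed, FACS-sorted into six equal bins by GFP/DsRed ratio, decoded by Illumina sequencing, PSI is the read-weighted mean bin number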
# MEASUREMENT_PARAMETERS: treatment: DMSO; c terminus: a fixed tail appended
ENDPOINT_LABEL: protein stability index
Write no unit; give the number alone.

# annotated cases, reported protein stability index shown
[
  {
    "SEQUENCE_RECORD": "YLVQGLVEECQAALQNKDTYEPFC [KCTD10]",
    "protein stability index": 2.32
  },
  {
    "SEQUENCE_RECORD": "KINVNEIFYDLVRQINRKTPVPGK [RAP1B]",
    "protein stability index": 2.44
  },
  {
    "SEQUENCE_RECORD": "VGHARGLHAWQINWPARQRGTHAV [SPSB4]",
    "protein stability index": 2.96
  },
  {
    "SEQUENCE_RECORD": "ADQRSRMLSIFYFAIPVGSGLGYI [SPNS1]",
    "protein stability index": 2.44
  },
  {
    "SEQUENCE_RECORD": "STGEVYCRVPNSGKDEIEAAVKAA [ALDH8A1]",
    "protein stability index": 4.93
  }
]

Turning now to a further record.
Field request: protein stability index | item: IVIFCLETLPELKDDKDFTGTVHR [KCNA1]
2.42
